TESTED_ON: T1, IL-1β (UniProt P01584 117-269)
T1 construct: Antigen of XPA23
ASSAY_PROTOCOL: Biacore, Fab periplasmic extract
ASSAY_READOUT: fold difference in affinity against the original (fold)

BINDER	EXPERIMENTAL_VALUE
XPA23 heavy chain S52G (Fab, V domains shown, Fab, periplasmic extract; also called C5A S52G) VH: EVQLLESGGGLVQPGGSLRLSCAASGFTFSKYFMFWVRQAPGKGLEWVSVIGPSGGMTRYADSVKGRFTISRDNSKNTLYLQMNSLRAEDTAVYYCARVGYGGNSDYWGQGTLVTVSS VL: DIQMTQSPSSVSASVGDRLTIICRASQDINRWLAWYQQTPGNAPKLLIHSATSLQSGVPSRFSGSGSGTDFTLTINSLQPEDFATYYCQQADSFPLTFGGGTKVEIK	0.03
XPA23 heavy chain Y32P (Fab, V domains shown, Fab, periplasmic extract; also called C5A Y32P) VH: EVQLLESGGGLVQPGGSLRLSCAASGFTFSKPFMFWVRQAPGKGLEWVSVISPSGGMTRYADSVKGRFTISRDNSKNTLYLQMNSLRAEDTAVYYCARVGYGGNSDYWGQGTLVTVSS VL: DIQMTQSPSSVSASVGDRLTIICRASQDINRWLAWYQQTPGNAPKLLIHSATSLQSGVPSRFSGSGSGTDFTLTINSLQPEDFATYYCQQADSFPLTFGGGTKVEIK	0.68
XPA23 heavy chain P53I (Fab, V domains shown, Fab, periplasmic extract; also called C5A P53I) VH: EVQLLESGGGLVQPGGSLRLSCAASGFTFSKYFMFWVRQAPGKGLEWVSVISISGGMTRYADSVKGRFTISRDNSKNTLYLQMNSLRAEDTAVYYCARVGYGGNSDYWGQGTLVTVSS VL: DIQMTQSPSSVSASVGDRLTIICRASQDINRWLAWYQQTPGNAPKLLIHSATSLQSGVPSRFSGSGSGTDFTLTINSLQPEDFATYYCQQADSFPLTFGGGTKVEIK	0.08
XPA23 heavy chain N104V (Fab, V domains shown, Fab, periplasmic extract; also called C5A N104V) VH: EVQLLESGGGLVQPGGSLRLSCAASGFTFSKYFMFWVRQAPGKGLEWVSVISPSGGMTRYADSVKGRFTISRDNSKNTLYLQMNSLRAEDTAVYYCARVGYGGVSDYWGQGTLVTVSS VL: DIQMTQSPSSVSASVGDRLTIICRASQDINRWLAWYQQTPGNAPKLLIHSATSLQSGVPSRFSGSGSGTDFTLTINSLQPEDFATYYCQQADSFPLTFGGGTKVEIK	1.27
XPA23 heavy chain S105V (Fab, V domains shown, Fab, periplasmic extract; also called C5A S105V) VH: EVQLLESGGGLVQPGGSLRLSCAASGFTFSKYFMFWVRQAPGKGLEWVSVISPSGGMTRYADSVKGRFTISRDNSKNTLYLQMNSLRAEDTAVYYCARVGYGGNVDYWGQGTLVTVSS VL: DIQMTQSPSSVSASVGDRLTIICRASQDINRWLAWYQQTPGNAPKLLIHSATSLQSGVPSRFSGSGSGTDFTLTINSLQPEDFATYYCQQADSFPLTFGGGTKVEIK	0.08
XPA23 heavy chain V50T (Fab, V domains shown, Fab, periplasmic extract; also called C5A V50T) VH: EVQLLESGGGLVQPGGSLRLSCAASGFTFSKYFMFWVRQAPGKGLEWVSTISPSGGMTRYADSVKGRFTISRDNSKNTLYLQMNSLRAEDTAVYYCARVGYGGNSDYWGQGTLVTVSS VL: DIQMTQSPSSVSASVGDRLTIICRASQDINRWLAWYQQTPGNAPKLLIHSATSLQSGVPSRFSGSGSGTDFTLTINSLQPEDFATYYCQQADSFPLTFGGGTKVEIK	0.03
XPA23 heavy chain S105A (Fab, V domains shown, Fab, periplasmic extract; also called C5A S105A) VH: EVQLLESGGGLVQPGGSLRLSCAASGFTFSKYFMFWVRQAPGKGLEWVSVISPSGGMTRYADSVKGRFTISRDNSKNTLYLQMNSLRAEDTAVYYCARVGYGGNADYWGQGTLVTVSS VL: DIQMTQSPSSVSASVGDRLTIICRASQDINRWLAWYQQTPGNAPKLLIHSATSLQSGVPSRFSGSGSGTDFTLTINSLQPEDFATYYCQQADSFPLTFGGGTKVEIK	0.84
XPA23 heavy chain F35V (Fab, V domains shown, Fab, periplasmic extract; also called C5A F35V) VH: EVQLLESGGGLVQPGGSLRLSCAASGFTFSKYFMVWVRQAPGKGLEWVSVISPSGGMTRYADSVKGRFTISRDNSKNTLYLQMNSLRAEDTAVYYCARVGYGGNSDYWGQGTLVTVSS VL: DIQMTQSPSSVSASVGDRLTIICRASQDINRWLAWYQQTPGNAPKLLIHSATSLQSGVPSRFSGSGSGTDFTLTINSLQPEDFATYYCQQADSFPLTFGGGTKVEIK	0.89
XPA23 heavy chain N104G (Fab, V domains shown, Fab, periplasmic extract; also called C5A N104G) VH: EVQLLESGGGLVQPGGSLRLSCAASGFTFSKYFMFWVRQAPGKGLEWVSVISPSGGMTRYADSVKGRFTISRDNSKNTLYLQMNSLRAEDTAVYYCARVGYGGGSDYWGQGTLVTVSS VL: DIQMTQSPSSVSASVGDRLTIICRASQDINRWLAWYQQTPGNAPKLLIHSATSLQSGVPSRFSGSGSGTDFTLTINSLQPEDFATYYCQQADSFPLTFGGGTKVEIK	1.21
XPA23 heavy chain S30A (Fab, V domains shown, Fab, periplasmic extract; also called C5A S30A) VH: EVQLLESGGGLVQPGGSLRLSCAASGFTFAKYFMFWVRQAPGKGLEWVSVISPSGGMTRYADSVKGRFTISRDNSKNTLYLQMNSLRAEDTAVYYCARVGYGGNSDYWGQGTLVTVSS VL: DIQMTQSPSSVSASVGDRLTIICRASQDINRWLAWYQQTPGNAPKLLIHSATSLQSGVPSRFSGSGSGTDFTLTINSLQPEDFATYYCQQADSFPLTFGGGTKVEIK	0.77
